The measured values listed here are drawn from patent US10800791B2.

target: UniProt:O00763
Sequence (O00763 whole entry): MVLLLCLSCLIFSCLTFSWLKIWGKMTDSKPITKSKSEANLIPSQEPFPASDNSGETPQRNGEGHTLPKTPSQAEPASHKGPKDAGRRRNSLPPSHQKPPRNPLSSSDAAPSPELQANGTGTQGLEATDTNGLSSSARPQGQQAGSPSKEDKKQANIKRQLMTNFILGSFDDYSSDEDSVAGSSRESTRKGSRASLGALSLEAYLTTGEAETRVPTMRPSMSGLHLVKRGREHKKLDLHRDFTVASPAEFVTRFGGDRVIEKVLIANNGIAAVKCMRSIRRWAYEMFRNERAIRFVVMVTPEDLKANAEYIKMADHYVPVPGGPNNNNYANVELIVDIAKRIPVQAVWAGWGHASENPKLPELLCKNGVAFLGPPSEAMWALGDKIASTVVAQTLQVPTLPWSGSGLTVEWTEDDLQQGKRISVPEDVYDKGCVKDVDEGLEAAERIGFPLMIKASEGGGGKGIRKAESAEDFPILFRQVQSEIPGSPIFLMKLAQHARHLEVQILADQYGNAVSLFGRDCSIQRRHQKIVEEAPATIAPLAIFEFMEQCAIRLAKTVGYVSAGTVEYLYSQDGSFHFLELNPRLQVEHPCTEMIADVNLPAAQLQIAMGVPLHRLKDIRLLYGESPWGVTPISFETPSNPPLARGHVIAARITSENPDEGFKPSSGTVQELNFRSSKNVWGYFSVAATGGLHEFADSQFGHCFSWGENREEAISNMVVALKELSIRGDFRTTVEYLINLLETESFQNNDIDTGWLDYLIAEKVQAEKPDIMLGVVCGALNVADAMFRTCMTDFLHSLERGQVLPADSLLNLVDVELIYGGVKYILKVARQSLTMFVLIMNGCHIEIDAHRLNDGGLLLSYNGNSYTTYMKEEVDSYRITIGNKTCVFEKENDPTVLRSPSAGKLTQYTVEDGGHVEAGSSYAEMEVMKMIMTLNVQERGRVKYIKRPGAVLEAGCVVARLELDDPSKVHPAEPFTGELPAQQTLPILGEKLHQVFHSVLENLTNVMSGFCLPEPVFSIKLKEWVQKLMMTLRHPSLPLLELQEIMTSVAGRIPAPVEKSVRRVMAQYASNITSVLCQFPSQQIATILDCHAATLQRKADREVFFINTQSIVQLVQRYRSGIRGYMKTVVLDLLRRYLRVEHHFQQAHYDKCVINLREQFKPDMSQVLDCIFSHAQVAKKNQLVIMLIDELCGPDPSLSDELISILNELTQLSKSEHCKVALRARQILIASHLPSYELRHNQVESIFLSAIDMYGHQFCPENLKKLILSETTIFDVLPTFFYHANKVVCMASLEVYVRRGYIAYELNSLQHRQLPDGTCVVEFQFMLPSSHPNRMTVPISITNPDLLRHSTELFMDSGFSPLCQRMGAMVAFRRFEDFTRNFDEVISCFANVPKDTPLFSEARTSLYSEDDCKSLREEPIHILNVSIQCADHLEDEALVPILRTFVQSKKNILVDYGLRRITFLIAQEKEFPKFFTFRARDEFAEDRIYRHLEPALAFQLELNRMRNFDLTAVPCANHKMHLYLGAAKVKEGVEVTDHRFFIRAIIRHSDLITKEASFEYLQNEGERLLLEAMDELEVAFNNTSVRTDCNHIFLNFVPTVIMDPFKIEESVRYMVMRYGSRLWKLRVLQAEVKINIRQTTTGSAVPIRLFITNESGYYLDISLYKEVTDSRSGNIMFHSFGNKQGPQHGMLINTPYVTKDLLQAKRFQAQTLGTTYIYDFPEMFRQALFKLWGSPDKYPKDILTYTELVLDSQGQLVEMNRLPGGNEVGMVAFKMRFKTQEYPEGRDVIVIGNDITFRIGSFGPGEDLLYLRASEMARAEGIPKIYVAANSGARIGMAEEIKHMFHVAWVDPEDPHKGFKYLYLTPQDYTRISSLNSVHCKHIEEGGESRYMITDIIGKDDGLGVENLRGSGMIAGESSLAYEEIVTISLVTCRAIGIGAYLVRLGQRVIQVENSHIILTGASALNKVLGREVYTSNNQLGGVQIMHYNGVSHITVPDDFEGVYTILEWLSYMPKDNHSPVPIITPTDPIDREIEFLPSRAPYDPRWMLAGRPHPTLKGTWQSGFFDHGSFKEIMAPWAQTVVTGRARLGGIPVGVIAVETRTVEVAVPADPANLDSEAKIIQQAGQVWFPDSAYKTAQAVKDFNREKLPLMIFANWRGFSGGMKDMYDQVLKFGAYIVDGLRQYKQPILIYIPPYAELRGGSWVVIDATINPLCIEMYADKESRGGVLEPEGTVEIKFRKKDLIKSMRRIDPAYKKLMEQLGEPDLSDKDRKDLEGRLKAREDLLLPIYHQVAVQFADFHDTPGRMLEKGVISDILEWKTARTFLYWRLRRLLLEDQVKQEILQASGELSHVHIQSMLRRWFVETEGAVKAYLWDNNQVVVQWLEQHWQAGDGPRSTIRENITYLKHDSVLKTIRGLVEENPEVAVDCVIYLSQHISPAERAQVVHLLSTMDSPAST
procedure-text: In vitro ACC inhibition assay (ADP-Glo), hACC2
Type: biochemical
settings: Table 2a, 5 nM ACC2, 20 μM ATP, 20 μM acetyl-CoA
reported-endpoint: IC50

Record for `COc1ccc(F)cc1[C@H](Cn1c(=O)n(C(C)(C)C(=O)NC2CCCCC2)c(=O)c2c(C)c(-n3nccn3)sc21)OCCC(C)=O` under target or system UniProt:O00763: IC50 reported as 5 to 10 nM

Record for `COc1ccc(F)cc1[C@H](Cn1c(=O)n(C(C)(C)C(=O)O)c(=O)c2c(C)c(-n3nccn3)sc21)O[C@H]1CC[C@H](C#N)CC1` under target or system UniProt:O00763: IC50 reported as 5 to 10 nM

Record for `COCCO[C@@H](Cn1c(=O)n(C(C)(C)C(=O)NC(C)C)c(=O)c2c(C)c(-n3nccn3)sc21)c1ccccc1OC` under target or system UniProt:O00763: IC50 reported as 5 to 10 nM

Record for `COCCCO[C@@H](Cn1c(=O)n([C@H](C)C(=O)NC(C)C)c(=O)c2c(C)c(-n3nccn3)sc21)c1cc(F)ccc1OC` under target or system UniProt:O00763: IC50 reported as 5 to 10 nM

Record for `Cc1c(-n2nccn2)sc2c1c(=O)n(C(C)(C)C(=O)NC(C)C)c(=O)n2C[C@H](OC(C)C)c1cc(F)ccc1OCC#N` under target or system UniProt:O00763: IC50 reported as 10 to 40 nM

Record for `C=CCN(C)C(=O)C(C)(C)n1c(=O)c2c(C)c(-n3nccn3)sc2n(C[C@H](OC(C)C)c2cc(F)ccc2OC)c1=O` under target or system UniProt:O00763: IC50 reported as 5 to 10 nM
